# Test system: SK-MEL-5 melanoma
# assay_protocol: NCI-60 one-dose screen, 48 h (100 = growth as untreated, 0 = no growth, -100 = all killed)
# condition_summary: 10 µM unless noted
This is part of a sample that, as a whole, favours compounds with a hit. Of some 83,000 tested, about 20% had one in any assay.
parameter_measured: growth (%)

> print(dat)
                                   structure  parameter.measured  observed.value
 1  COc1cccc(-c2nn(-c3ccccc3)cc2-c2ccnc(NCCCNS(=O)(=O)c3ccc(Cl)cc3)c2)c1              growth            30.8
 2  CC(=O)Oc1ccccc1C(=O)/C=C/c1cccc([N+](=O)[O-])c1              growth            89.3
 3  COc1cc2[nH]c(C(=O)c3cc(OC)c(OC)c(OC)c3)c(N)c2cc1C#CC1CC1              growth            18.4
 4  Cc1ccc(Sc2sc(-c3ccccc3)nc2[P+](c2ccccc2)(c2ccccc2)c2ccccc2)cc1              growth           -97.6
 5    COc1cc(-c2cc3cc(O)ccc3oc2=O)cc(OC)c1OC              growth            93.6
 6  Cc1cc(Nc2ccc(F)cc2)nc(N2CCN(c3ccnc4cc(Cl)ccc34)CC2)n1              growth            14.1
 7  C=C(C)[C@@H]1CC[C@]2(C)[C@H](CC=C3[C@@H]4CC(C)(C)CC[C@]4(C(=O)OC)CC[C@]32C)[C@@]1(C)CC/C(N)=N/O              growth           -19.9
 8  CC(=O)O[C@@H]1CCN2C(=O)N(C)c3ccccc3[C@@H]2C1              growth             104
 9  O=[N+]([O-])c1cc(S(=O)(=O)c2ccc(F)c([N+](=O)[O-])c2)ccc1F              growth             106
10  Brc1ccc2c(c1)c(-c1nc(-c3c[nH]c4ncccc34)cs1)cn2CCCN1CCCCC1              growth           -59.5
11  c1ccc2[nH]c(-c3ccc(Nc4nc(N5CCCCC5)nc(N5CCOCC5)n4)cc3)nc2c1              growth           -90.7
12  COc1cc(-c2cc3ncccc3c3[nH]c(=O)c4cccnc4c23)cc(OC)c1OC              growth            -5.2

* * *

# Test system: M14 melanoma
# assay_protocol: NCI-60 one-dose screen, 48 h (100 = growth as untreated, 0 = no growth, -100 = all killed)
# condition_summary: 10 µM unless noted
About 83,000 compounds went through this panel and 20% of them were active in at least one assay; those are over-represented in the sample as a whole.
parameter_measured: growth (%)

> print(dat)
                                  structure  observed.value
1  Cc1cc(Cl)nc(N(CCNc2ccnc3cc(Cl)ccc23)Cc2ccco2)n1            55.3
2  CC(C)=CCC/C(C)=C/CC/C(C)=C/CC/C(C)=C/CSC[C@H](NC(=O)CCCCCN1CCN(C)CC1)C(=O)NC1CCCCC1            35.1
3       COc1ccc(NC(=O)c2ccoc2COc2ccccc2)cc1            92.1

These data points were gathered from PubChem BioAssay (NCI).
